- assay protocol: chemical genetic growth profiling, strain panel (AID 1159580);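 also: tested at 20 µM; growth read once vehicle control cultures reached saturation at 30 °C; 1 = growth at the plate median or of vehicle wells; lower values mean less growth of the strain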
- assay setup: S. cerevisiae deletion strains, growth OD, locus YLR058C, strain SHM2, hits give low values
About 2,000 (36%) of roughly 5,500 compounds were called active. Roughly 18% stayed inconclusive and do not appear here. Some of the results follow.
Reported normalized growth values for the following molecules.
test readout: normalized growth

{"molecule": "NS(=O)(=O)c1cc2c(cc1Cl)NC=NS2(=O)=O", "test readout": "normalized growth", "recorded value": 1.01}
{"molecule": "CN1C2C[C@H](OC(=O)[C@H](CO)c3ccccc3)C[C@H]1[C@@H](O)C2", "test readout": "normalized growth", "recorded value": 1.01}
{"molecule": "Oc1cc(O)c2c(c1)O[C@H](c1cc(O)c(O)c(O)c1)[C@H](O)C2", "test readout": "normalized growth", "recorded value": 0.98}
{"molecule": "COC(=O)CC1C2(C)CC34OC5(C)OC6(C7/C(=C(/O)C(C)C)C(=O)OC(c8ccoc8)C7(C)C(OC(=O)C(C)C)C(OC)C6(O5)C13C)C(OC)C4(OC)C2OC(C)=O (stereo unspecified)", "test readout": "normalized growth", "recorded value": 1.01}
{"molecule": "C=C1C2CC[C@@]3(C)[C@H](c4ccoc4)OC(=O)C[C@]13O[C@H]1CC(=O)C(C)(C)[C@H](C(OC(C)=O)C(=O)OC)[C@@]21C (stereo partly specified)", "test readout": "normalized growth", "recorded value": 1.01}
{"molecule": "COc1ccc2c(c1)OC1(O)COc3cc(OC)c(OC)cc3C1=C2 (stereo unspecified)", "test readout": "normalized growth", "recorded value": 1}

The measurements presented in this section are drawn from PubChem BioAssay AID1159580.
